# protein stability index values compiled below
B1: SEC22B (parent)
chain: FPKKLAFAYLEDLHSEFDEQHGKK

# Variants of: B1
# EXPERIMENT_SUMMARY: protein stability index of a GFP-peptide fusion (GPS, HEK-293T) (PSI 1-6); higher = more stable;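 further: lentivirally expressed fusions sorted by FACS into six bins by GFP to DsRed ratio, PSI derived from sequencing read proportions per bin multiplied by bin number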
# CONDITION_CONTEXT: c terminus: a fixed tail appended
ASSAY_READOUT: protein stability index

> print(dat)
   variant.string  experimental.value
1             P2R                2.94
2             K3P                3.08
3             A8S                3.06
4            D18S                2.92
